Tested on: Shigella boydii
assay info: Antibacterial activity against Shigella boydii at 200 ug/100uL after 24 hrs by agar well diffusion method
Format: functional
property name: inhibition zone (IZ) (mm)
Provide only the numeric value, understood in mm.

Consider the worked cases shown below.
C[C@@H]([C@H]1CC[C@H]2[C@@H]3CC[C@H]4C[C@@H](N(C)C(=O)c5ccccc5)CC[C@]4(C)[C@H]3CC[C@]12C)N(C)C : 6
CC1(C)S[C@@H]2[C@H](NC(=O)[C@H](N)c3ccccc3)C(=O)N2[C@H]1C(=O)O : 17
C[C@@H]([C@H]1CC[C@H]2[C@@H]3CC[C@H]4C[C@@H](N(C)C(=O)/C=C/c5ccccc5)CC[C@]4(C)[C@H]3CC[C@]12C)N(C)C [SALIGCINNAMIDE] : 6

Then this molecule:
Query :: Using the record for `CC1(C)S[C@@H]2[C@H](NC(=O)[C@H](N)c3ccc(O)cc3)C(=O)N2[C@H]1C(=O)O` , state its measured inhibition zone (IZ).
Result :: 17

---

System: Streptococcus pyogenes
assay info: Antibacterial activity against Streptococcus pyogenes at 200 ug/100uL after 24 hrs by agar well diffusion method
Format: functional
Examples of compounds with documented inhibition zone (IZ) follow.
Hi! Could you send only the number? It should be in mm, unit omitted.

Below, 2 compounds whose answers are already recorded.
CC1(C)S[C@@H]2[C@H](NC(=O)[C@H](N)c3ccccc3)C(=O)N2[C@H]1C(=O)O : 17
CC1(C)S[C@@H]2[C@H](NC(=O)[C@H](N)c3ccc(O)cc3)C(=O)N2[C@H]1C(=O)O : 16

Query :: Output measured inhibition zone (IZ) for this item: C[C@@H]([C@H]1CC[C@H]2[C@@H]3CC[C@H]4C[C@@H](N(C)C(=O)/C=C/c5ccccc5)CC[C@]4(C)[C@H]3CC[C@]12C)N(C)C [SALIGCINNAMIDE]
Result :: 8

Query :: Answer with the recorded inhibition zone (IZ) for the compound listed here: `C[C@@H]([C@H]1CC[C@H]2[C@@H]3CC[C@H]4C[C@@H](N(C)C(=O)c5ccccc5)CC[C@]4(C)[C@H]3CC[C@]12C)N(C)C`
Result :: 6
